- Assay name: Chronic toxicity of suppositories: indexes of peripheral blood
- Type: in vivo, rats
- Particulars: male rats, suppositories rectally, 50 mg/kg, 1 month; control 10.5 ± 0.2
For each record, write down the corresponding Hemoglobin.
API: value field is a number in mmol/L; no unit string.

Just so you know, measured Hemoglobin for O=C([O-])c1ncnc2c(=O)n([C@@H]3O[C@H](CO)[C@@H](O)[C@H]3O)[nH]c(=O)c12.[Na+] came out at 10.6

Just so you know, measured Hemoglobin for O=c1[nH][nH]c(=O)c2c(Br)ncnc12.[K] came out at 10.5

Just so you know, measured Hemoglobin for Nc1cccc2c(=O)[nH][nH]c(=O)c12.[Na] came out at 10.6

Just so you know, measured Hemoglobin for O=c1[nH]n([C@@H]2O[C@H](CO)[C@@H](O)[C@H]2O)c(=O)c2nc(O)cnc12.[Na].[Na] came out at 10.7

---

For each record, write down the corresponding i.
- Assay name: Electrochemical activity: polarographic reduction on mercury dripping electrode
- Format: physicochemical
- Particulars: pH 7.4; 2.0% sodium chloride background, 37° C., 9·10^−4 M, forward trace; average for the group of compounds
Record the result as a number with its unit.

Just so you know, measured i for Nc1ncc2c(=O)[nH][nH]c(=O)c2n1 came out at 0.30 ± 0.03 mkA

Just so you know, measured i for O=c1[nH]n([C@@H]2O[C@H](CO)[C@@H](O)[C@H]2O)c(=O)c2ncccc12.[Na] came out at 0.27 ± 0.03 mkA

Just so you know, measured i for O=c1[nH]n([C@@H]2O[C@H](CO)[C@@H](O)[C@H]2O)c(=O)c2ncnc(O)c12.[Na] came out at 0.30 ± 0.03 mkA

Just so you know, measured i for O=c1[nH][nH]c(=O)c2ncccc12.[Na] came out at 0.27 ± 0.03 mkA

Just so you know, measured i for O=c1[nH][nH]c(=O)c2nccnc12.[Li] came out at 0.34 ± 0.03 mkA

Just so you know, measured i for O=c1[nH][nH]c(=O)c2ncncc12.[Li] came out at 0.30 ± 0.03 mkA

Just so you know, measured i for Nc1cccc2c(=O)[nH][nH]c(=O)c12.[Na] came out at 0.29 ± 0.02 mkA

Just so you know, measured i for COP(=O)(OC)C(C)(C)CC(C)=O [Dimesphosphon, reference compound] came out at 0.11 ± 0.02 mkA

Just so you know, measured i for O=C([O-])c1ccc2c(=O)[nH][nH]c(=O)c2c1.O=C([O-])c1ccc2c(=O)[nH][nH]c(=O)c2c1.[Na+].[Na+] came out at 0.29 ± 0.02 mkA

Just so you know, measured i for Nc1cccc2c(=O)n([C@@H]3O[C@H](CO)[C@@H](O)[C@H]3O)[nH]c(=O)c12.[Na] came out at 0.29 ± 0.02 mkA

Just so you know, measured i for O=c1[nH]n([C@@H]2O[C@H](CO)[C@@H](O)[C@H]2O)c(=O)c2nc(O)cnc12.[Na].[Na] came out at 0.34 ± 0.03 mkA

---

- Assay name: Chronic toxicity of suppositories: indexes of peripheral blood
- Assay type: in vivo, rats
- Particulars: male rats, suppositories rectally, 50 mg/kg, 1 month; control 0.8 ± 0.4
For each record, write down the corresponding Stab neutrophil.
Record the result as a number with its unit.

Just so you know, measured Stab neutrophil for O=c1[nH]n([C@@H]2O[C@H](CO)[C@@H](O)[C@H]2O)c(=O)c2nc(O)cnc12.[Na].[Na] [Compound 23] came out at 1.1 ± 0.5%

Just so you know, measured Stab neutrophil for Nc1cccc2c(=O)[nH][nH]c(=O)c12.[Na] [Compound 15] came out at 1.2 ± 0.5%

Just so you know, measured Stab neutrophil for O=C([O-])c1ncnc2c(=O)n([C@@H]3O[C@H](CO)[C@@H](O)[C@H]3O)[nH]c(=O)c12.[Na+] [Compound 34] came out at 1.0 ± 0.4%

Just so you know, measured Stab neutrophil for O=c1[nH][nH]c(=O)c2c(Br)ncnc12.[K] [Compound 37] came out at 1.3 ± 0.5%
